Where do the numbers come from? From ChEMBL document CHEMBL1133906.

For each of the compounds below, state its IC50.
Test system: Leishmania donovani
method.description: In vitro inhibitory activity against Leishmania donovani (PP75)
Assay type: functional, organism-based

Record request: IC50 value, item COc1ccc(CC2(O)c3ccccc3C3=NCCCN32)cc1OC (stereo unspecified) ≥ 100 µg/mL

Bench note: what IC50 did O=C(C(=O)c1ccccc1C(=O)N1CCCCC1)c1ccc2c(c1)OCO2 show? ≥ 100 µg/mL

# input compound: CCN(CC)C(=O)c1ccccc1C(=O)C(=O)c1ccc(OC)cc1 ; wanted: its IC50 75 µg/mL

Give the measured IC50 of COc1ccc(CCc2cc(O)cc(OC)c2C(=O)N2CCCCC2)cc1 . 7 µg/mL

Quick one: IC50 of COc1ccc(CCc2cc(O)cc(OC)c2C(=O)O)cc1 [ISONOTHOLAENIC ACID] ? 32 µg/mL

# query: IC50 of entry COc1cc(/C=C2\OC(=O)c3ccccc32)cc(OC)c1OC ≥ 100 µg/mL

Quick one: IC50 of O=C(Cc1ccc2c(c1)OCO2)c1ccccc1C(=O)N1CCCCC1 ? ≥ 100 µg/mL

What does the record list as IC50 for COc1ccc(Cc2nnc(O)c3ccccc23)cc1OC ? ≥ 100 µg/mL

What does the record list as IC50 for COc1cc(CC2(O)c3ccccc3C3=NCCCN32)cc(OC)c1OC (stereo unspecified) ? ≥ 100 µg/mL

If you can, please state the reported IC50 value of COc1cc(Cc2nn(C)c(=O)c3ccccc23)cc(OC)c1OC . ≥ 100 µg/mL

Looking for the measured IC50 of COc1ccc(CC(=O)c2ccccc2C(=O)N2CCCCC2)cc1OC , can you help? ≥ 100 µg/mL

###

Tested on: Leishmania amazonensis
method.description: In vitro inhibitory activity against Leishmania amazonensis (PH8)
Assay type: functional, organism-based
measured.endpoint: IC50

Endpoint output: IC50 of COc1ccc(CC2(O)c3ccccc3C(=O)N2NC(C)(C)C)cc1 (centres undefined) . Value? ≥ 100 µg/mL

Need IC50 of COc1cc(C(=O)C(=O)c2ccccc2C(=O)N2CCCCC2)cc(OC)c1OC , thanks. 28 µg/mL

What IC50 value was documented for this molecule, OC1(Cc2ccc(Cl)cc2)c2ccccc2C2=NCCCN21 (centres undefined) ? ≥ 100 µg/mL

Dear colleague, I am looking for the recorded IC50 of the following molecule: COc1cc(CC(=O)c2ccccc2C(=O)N2CCCCC2)cc(OC)c1OC 10 µg/mL

Which IC50 value is on record for COc1ccc(Cc2nn(C)c(=O)c3ccccc23)cc1 ? ≥ 100 µg/mL

Would you mind telling me what IC50 value was observed for O=C1O/C(=C\c2ccccc2)c2ccccc21 ? 45 µg/mL

Could you tell me which IC50 is on file for OC1(Cc2ccccc2)c2ccccc2C2=NCCCN21 (centres undefined) ? 45 µg/mL

What IC50 value was documented for this molecule, COc1ccc(CC2(O)c3ccccc3C3=NCCN32)cc1 (centres undefined) ? ≥ 100 µg/mL

Please give the measured IC50 for this molecule: Cn1nc(Cc2ccccc2)c2ccccc2c1=O ≥ 100 µg/mL

For the molecule shown here, COc1ccc(CCc2cc(O)cc(OC)c2C(=O)O)cc1 , give the reported IC50. 32 µg/mL

Quick one: IC50 of O=C(C(=O)c1ccccc1C(=O)N1CCCCC1)c1ccc(Cl)cc1 ? 25 µg/mL

Value lookup for IC50; key = O=C(Cc1ccc2c(c1)OCO2)c1ccccc1C(=O)N1CCCCC1 ≥ 100 µg/mL

Tell me the measured IC50 of COc1ccc(Cc2nn(C)c(=O)c3ccccc23)cc1OC , please. ≥ 100 µg/mL

If you can, please state the reported IC50 value of COc1ccc(/C=C2/c3ccccc3C(=O)N2NC(C)(C)C)cc1 . ≥ 100 µg/mL

Which IC50 reading was recorded for the molecule N=C(N)c1ccc(OCCCCCOc2ccc(C(=N)N)cc2)cc1 ? 1.3 µg/mL

Name the reported IC50 value associated with the molecule COc1ccc(CC2(O)c3ccccc3C3=NCCCN32)cc1OC (centres undefined) ≥ 100 µg/mL

I would be grateful if you could share the reported IC50 for O=C(C(=O)c1ccccc1C(=O)N1CCCCC1)c1ccccc1 . 75 µg/mL

Which IC50 is reported for this molecule? COc1ccc(CC(=O)c2ccccc2C(=O)N2CCCCC2)cc1OC ≥ 100 µg/mL

// query IC50 value for entry O=c1[nH]nc(Cc2ccccc2)c2ccccc12 ≥ 100 µg/mL

Find the recorded IC50 belonging to OC1(Cc2ccc(Cl)cc2)c2ccccc2C2=NCCN21 (centres undefined) and report it. ≥ 100 µg/mL

Any idea what its IC50 is? The molecule is COc1cc(Cc2nnc(O)c3ccccc23)cc(OC)c1OC ≥ 100 µg/mL

Given the molecule OC1(Cc2ccc3c(c2)OCO3)c2ccccc2C2=NCCCN21 (centres undefined) , what is its reported IC50? ≥ 100 µg/mL

# input molecule: COc1ccc(CCc2cc(O)cc(OC)c2C(=O)N2CCCCC2)cc1 ; wanted: its IC50 7 µg/mL

Need IC50, item COc1ccc(Cc2nnc(O)c3ccccc23)cc1 ≥ 100 µg/mL
